All figures here come from paper PMC12748989.

List of Average (percentage cell inhibition), Dmastoparan MDA-MB231 12.5uM tested on MDA-MB-231 cells.
Please respond with the number in % and leave the unit unwritten.

Consider the worked cases shown below.
INSERT INTO assay_data (structure, observed_measurement) VALUES
  ('CC[C@H](C)[C@H](N)C(=O)N[C@@H](CC(N)=O)C(=O)N[C@@H](CO)C(=O)N[C@@H](CCCCN)C(=O)N[C@@H](C)C(=O)N[C@@H](CC(C)C)C(=O)N[C@@H](C)C(=O)N[C@@H](C)C(=O)N[C@@H](CC(C)C)C(=O)N[C@@H](C)C(=O)N[C@@H](CCCCN)C(=O)N[C@@H](CCCCN)C(=O)N[C@H](C(=O)N[C@@H](CC(C)C)C(N)=O)[C@@H](C)CC', 12.1099),
  ('CC[C@H](C)[C@H](N)C(=O)N[C@@H](CC(N)=O)C(=O)N[C@@H](CC(C)C)C(=O)N[C@@H](CCCCN)C(=O)N[C@@H](C)C(=O)N[C@@H](CC(C)C)C(=O)N[C@@H](C)C(=O)N[C@@H](C)C(=O)N[C@@H](CC(C)C)C(=O)N[C@@H](C)C(=O)N[C@@H](CO)C(=O)N[C@@H](CCCCN)C(=O)N[C@H](C(=O)N[C@@H](CC(C)C)C(N)=O)[C@@H](C)CC', 28.2862);

Continue with the compound presented below.
Request body: readout Average (percentage cell inhibition), Dmastoparan MDA-MB231 12.5uM, system MDA-MB-231 cells, query CC[C@H](C)[C@H](N)C(=O)N[C@@H](CC(N)=O)C(=O)N[C@@H](CC(C)C)C(=O)N[C@@H](CC(N)=O)C(=O)N[C@@H](C)C(=O)N[C@@H](CC(C)C)C(=O)N[C@@H](C)C(=O)N[C@@H](C)C(=O)N[C@@H](CC(C)C)C(=O)N[C@@H](C)C(=O)N[C@@H](CCCCN)C(=O)N[C@@H](CCCCN)C(=O)N[C@H](C(=O)N[C@@H](CC(C)C)C(N)=O)[C@@H](C)CC . Return the value.
50.001
